# test_system: Recombinant Human ENPP-2/Autotaxin (Homo sapiens)
# method_description: LysoPLD activity measurement (autotaxin enzyme inhibition, choline release, TOOS reagent)
# conditions: LysoPLD inhibitory activity; substrate 14:0 LysoPC; absorbance at 555 nm
observation_type: IC50

- O=C(O)c1cccc(Cn2c(=O)n(-c3cnn(CC4CCC4)c3)c3cc(Cl)ccc32)c1 [Example 91]: 100 to 1000 nM
- O=C(O)c1cccc(C2(n3c(=O)n(-c4ccc(S(=O)(=O)N5CCCCC5)cc4)c4cc(Cl)ccc43)CC2)c1 [Example 214]: < 10 nM
- O=C(O)c1cccc(C2(n3c(=O)n(-c4ccc(S(=O)(=O)N5CCOCC5)cc4)c4cc(Cl)ccc43)CC2)c1 [Example 212]: < 10 nM
- O=C(O)c1cccc(C2(n3c(=O)n(-c4ccc(C(=O)N5CC6(COC6)C5)cc4)c4cc(Cl)ccc43)CC2)c1 [Example 137]: < 10 nM
- O=C(O)c1cccc(Cn2c(=O)n(-c3ccc(C4CC4)cn3)c3cc(Cl)ccc32)c1 [Example 163]: 100 to 1000 nM
- CN(C)C(=O)Cc1ccc(-n2c(=O)n(C3(c4cc(F)cc(C(=O)O)c4)CC3)c3ccc(Cl)cc32)cc1 [Example 189]: < 10 nM
- O=C(O)c1cccc(C2(n3c(=O)n(-c4ccc(C(=O)N5CC(F)(F)C5)cc4)c4cc(Cl)ccc43)CC2)c1 [Example 129]: < 10 nM
- O=C(O)c1cccc(C2(n3c(=O)n(-c4ccc(C5(O)CCC5)cc4)c4cc(Cl)ccc43)CC2)c1 [Example 256]: < 10 nM
- CNC(=O)c1ccc(-n2c(=O)n(Cc3cccc(C(=O)O)c3)c3ccc(Cl)cc32)cc1 [Example 22]: 10 to 100 nM
- C[C@@H]1CN(C(=O)Cc2ccc(-n3c(=O)n(C4(c5cccc(C(=O)O)c5)CC4)c4ccc(Cl)cc43)cc2)CCO1 [Example 175]: < 10 nM
- CC1CC=C(c2ccc(-n3c(=O)n(Cc4cccc(C(=O)O)c4F)c4ccc(Cl)cc43)cc2)CC1 (stereo not drawn) [Example 111]: 100 to 1000 nM
- O=C(O)c1cccc(Cn2c(=O)n(-c3ccc(N4CCC(F)(F)C4)cc3)c3c(F)c(Cl)ccc32)c1 [Example 105]: 100 to 1000 nM
- CC(C)(C)OC(=O)N1CCC2(CC1)CN(c1ccc(-n3c(=O)n(C4(c5cc(F)cc(C(=O)O)c5)CC4)c4ccc(Cl)cc43)cc1)C2 [Example 195]: 10 to 100 nM
- CN1CCN(C(=O)c2ccc(-n3c(=O)n(Cc4cccc(C(=O)O)c4)c4ccc(Cl)cc43)cc2)CC1 [Example 60]: < 10 nM
- O=C(O)c1cccc(C2(n3c(=O)n(-c4ccc(CC(=O)N5CCOCC5)cc4)c4cc(Cl)ccc43)CC2)c1 [Example 172]: 10 to 100 nM
- O=C(O)c1cccc(Cn2c(=O)n(-c3ccc(N4CCC(F)(F)C4)nc3)c3cc(Cl)ccc32)c1 [Example 80]: 100 to 1000 nM
- O=C(O)c1cccc(Cn2c(=O)n(-c3ccc(N4CCOCC4)cc3)c3c(F)c(Cl)ccc32)c1 [Example 24]: 10 to 100 nM
- CN(C)c1ccc(-n2c(=O)n(C3(c4cc(F)cc(C(=O)O)c4)CC3)c3ncc(Cl)cc32)cc1 [Example 271]: < 10 nM
